study.system: human CD33 variant I47F (human, UniProt P20138 18-364)
Sequence (P20138 18-364 I47F limits assumed): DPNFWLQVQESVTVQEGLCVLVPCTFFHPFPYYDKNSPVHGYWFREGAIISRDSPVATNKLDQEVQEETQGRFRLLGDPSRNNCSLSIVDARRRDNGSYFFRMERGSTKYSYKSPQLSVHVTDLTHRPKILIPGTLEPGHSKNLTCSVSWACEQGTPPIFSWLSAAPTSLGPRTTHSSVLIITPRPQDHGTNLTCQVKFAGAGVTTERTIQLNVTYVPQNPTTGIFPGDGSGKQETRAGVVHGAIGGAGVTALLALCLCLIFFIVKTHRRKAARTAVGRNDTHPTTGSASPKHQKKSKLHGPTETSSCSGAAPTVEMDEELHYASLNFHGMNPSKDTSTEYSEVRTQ
assay.overview: flow cytometry, IgG on cells expressing the mutant
Exercise: state measured Mean % WT Binding for each of the binders provided.

Example entries and their recorded answers appear below.
## Task Give the value of Mean % WT Binding reported for the following: Refmab #1 (antibody, human IgG1, V domains shown, Tested in IgG format; human IgG1 (Absolute Antibody hP67.6, Cat. No. Ab00283-10.0); also called hP67.6) VH: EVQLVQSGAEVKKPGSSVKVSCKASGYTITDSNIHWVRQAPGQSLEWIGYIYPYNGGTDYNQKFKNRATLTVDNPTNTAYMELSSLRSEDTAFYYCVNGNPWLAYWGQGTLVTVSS VL: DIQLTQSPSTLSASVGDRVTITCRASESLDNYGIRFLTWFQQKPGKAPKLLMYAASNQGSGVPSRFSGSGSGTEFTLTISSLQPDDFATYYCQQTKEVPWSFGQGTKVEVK
## Result 101 % of WT

## Task Give the value of Mean % WT Binding reported for the following: Refmab #3 (antibody, human IgG1, V domains shown, Tested in IgG format; human IgG1 Fc silent (PG-LALA)) VH: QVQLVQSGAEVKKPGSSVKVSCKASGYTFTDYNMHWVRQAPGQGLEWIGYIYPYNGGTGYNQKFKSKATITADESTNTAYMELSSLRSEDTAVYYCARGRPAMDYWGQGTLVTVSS VL: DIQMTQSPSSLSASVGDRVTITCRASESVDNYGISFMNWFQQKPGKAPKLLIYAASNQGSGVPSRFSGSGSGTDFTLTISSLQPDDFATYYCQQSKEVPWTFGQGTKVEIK
## Result 102 % of WT

For the next question, use this binder.
## Task Give the value of Mean % WT Binding reported for the following: Refmab #2 (antibody, human IgG1, V domains shown, Tested in IgG format; human IgG1 Fc silent (PG-LALA)) VH: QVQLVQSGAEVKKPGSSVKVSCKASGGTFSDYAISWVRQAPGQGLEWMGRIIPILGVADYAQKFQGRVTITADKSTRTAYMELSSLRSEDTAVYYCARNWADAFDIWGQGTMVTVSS VL: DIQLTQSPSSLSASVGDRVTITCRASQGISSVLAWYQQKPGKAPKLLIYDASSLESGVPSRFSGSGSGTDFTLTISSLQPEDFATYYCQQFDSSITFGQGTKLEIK
## Result 2.2 % of WT
